pIC50 overview
ASSAYED SYSTEM: BTK C481S (Homo sapiens, UniProt Q06187, C481S)
Sequence (Q06187 whole entry C481S): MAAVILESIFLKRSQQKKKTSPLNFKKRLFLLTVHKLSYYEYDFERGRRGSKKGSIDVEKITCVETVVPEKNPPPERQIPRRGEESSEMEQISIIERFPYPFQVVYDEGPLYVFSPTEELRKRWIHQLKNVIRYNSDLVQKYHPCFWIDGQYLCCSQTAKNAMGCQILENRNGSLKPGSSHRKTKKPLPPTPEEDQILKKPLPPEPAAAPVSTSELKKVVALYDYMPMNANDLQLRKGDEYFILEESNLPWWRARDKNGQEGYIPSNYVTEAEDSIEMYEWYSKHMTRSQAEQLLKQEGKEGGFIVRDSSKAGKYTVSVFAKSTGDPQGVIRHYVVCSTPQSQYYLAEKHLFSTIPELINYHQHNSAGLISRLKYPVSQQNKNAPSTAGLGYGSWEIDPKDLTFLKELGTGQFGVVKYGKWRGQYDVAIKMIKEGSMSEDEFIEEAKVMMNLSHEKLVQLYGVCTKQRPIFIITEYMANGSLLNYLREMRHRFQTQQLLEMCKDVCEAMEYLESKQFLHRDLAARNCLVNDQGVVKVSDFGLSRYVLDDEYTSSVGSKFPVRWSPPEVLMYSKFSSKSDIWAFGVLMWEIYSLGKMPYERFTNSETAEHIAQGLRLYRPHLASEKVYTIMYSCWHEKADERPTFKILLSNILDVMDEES
ASSAY NOTES: In vitro kinase activity assay (mobility shift assay), BTK C481S
STATED CONDITIONS: ATP 90 μM, reaction time 30 min
pIC50: −log10 of the molar value.

See these solved cases before continuing.
>>> print(df.to_string())
                               smiles_input  endpoint  observed_measurement
0  C[C@H]1CNC(=O)c2cnn3cc(N4CCOCC4)c(nc23)NCc2cc(F)cnc2O1     pIC50                < 5.00
1  C[C@H]1CNC(=O)c2cnn3c(N)c(-c4ccc5[nH]ccc5c4)c(nc23)NCc2cc(F)cnc2O1     pIC50                < 6.00
2  C[C@H]1CNC(=O)c2cnn3cc(-c4ccc(Oc5ccccc5)cc4)c(nc23)NCc2cc(F)cnc2O1     pIC50                < 5.00
3  C[C@H]1CNC(=O)c2c(C#N)nn3c(N)c(-c4ccccc4)c(nc23)NCc2cc(F)cnc2O1     pIC50                < 6.00

Next compound, please.
Query: Provide pIC50 value for the following compound: "Cc1nn2c(N)c(-c3ccccc3)c3nc2c1C(=O)NC[C@H](C)Oc1ncc(F)cc1CN3"
Result: < 6.00
